- study.target: T1, human neuropeptide Y2 receptor (human, UniProt P49146 1-381)
- T1 sequence (looked up): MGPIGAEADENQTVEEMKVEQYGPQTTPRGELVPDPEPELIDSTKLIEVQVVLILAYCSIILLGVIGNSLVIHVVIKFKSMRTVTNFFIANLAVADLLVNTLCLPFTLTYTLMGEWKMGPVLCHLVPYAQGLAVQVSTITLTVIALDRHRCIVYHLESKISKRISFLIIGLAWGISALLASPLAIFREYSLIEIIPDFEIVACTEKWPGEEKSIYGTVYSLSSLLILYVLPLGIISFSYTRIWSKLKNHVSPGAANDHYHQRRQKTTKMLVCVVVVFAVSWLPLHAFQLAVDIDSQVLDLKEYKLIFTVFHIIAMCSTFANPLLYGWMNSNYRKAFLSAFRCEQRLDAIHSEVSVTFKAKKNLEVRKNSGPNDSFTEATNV
- assay.info: cell-based or functional assay
Starred links: 1 amine or outer side, 2 acyl side, 3 side chain; linkers in the order of their positions; H or OH if unused. Non-standard residues stand in square brackets, D forms with d. Groups on a side chain read outwards from the residue. No end group written: not given here. *: point of attachment. C20 diacid = O=C(O)CCCCCCCCCCCCCCCCCCC(=O)*; C18 diacid = O=C(O)CCCCCCCCCCCCCCCCC(=O)*; γGlu = O=C(O)[C@H](CCC(=O)[*:2])N[*:1]; εLys = N[C@@H](CCCCN[*:1])C(=O)[*:2]; AEEA = NCCOCCOCC(=O)O; Aib = CC(C)(N)C(=O)O; OEG = OEG spacer
EC50 hNPY2R 0.5% hP (CreLuc) overview
Just the number in nM, nothing appended.

# annotated cases, reported EC50 hNPY2R 0.5% hP (CreLuc) shown
binder | u | EC50 hNPY2R 0.5% hP (CreLuc)
Y[Aib]EGTFTSDYSI[Aib]LEKQAQ[Aib]AFVEWLIK([εLys-γGlu-Glu-γGlu-γGlu-γGlu-C20 diacid])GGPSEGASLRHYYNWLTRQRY-NH2 (also: TFA salt) [Compound 290] | nM | 9.68
Y[Aib]EGTFTSDYSI[Aib]LEKQAQ[Aib]AFVQWLIK([OEG-OEG-γGlu-γGlu-γGlu-C18 diacid])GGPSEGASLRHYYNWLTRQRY-NH2 (also: TFA salt) [Compound 266] | nM | 7.2
Y[Aib]EGTFTSDYSI[Aib]LEKQAQ[Aib]AFVEWLIK([εLys-γGlu-γGlu-γGlu-γGlu-γGlu-γGlu-γGlu-C20 diacid])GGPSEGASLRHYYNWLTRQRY-NH2 (also: TFA salt) [Compound 288] | nM | 14.3
Y[Aib]EGTFTSDYSI[Aib]LEKQAQ[Aib]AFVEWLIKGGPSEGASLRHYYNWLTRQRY-NH2 (not fully specified (residue 28); also: TFA salt) [Compound 295] | nM | 10.9
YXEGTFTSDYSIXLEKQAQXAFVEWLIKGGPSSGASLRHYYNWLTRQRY (Aib at 2, 13, 20; K28 side chain acylated with C18DA-gGlu-gGlu-gGlu-gGlu-gGlu-AHX; C-terminal amide (NH2)) [Compound 260] | nM | 26.4
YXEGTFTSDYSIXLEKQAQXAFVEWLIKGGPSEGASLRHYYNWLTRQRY (Aib at 2, 13, 20; K28 side chain acylated with C18DA-gGlu-gGlu-gGlu-gGlu-gGlu; C-terminal amide (NH2)) [Compound 292] | nM | 19.9
Y[Aib]EGTFTSDYSI[Aib]LEKQAQ[Aib]AFVEWLIK([γGlu-γGlu-γGlu-γGlu-C18 diacid])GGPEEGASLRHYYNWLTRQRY-NH2 (also: TFA salt) [Compound 272] | nM | 23.8

Proceed to the following item.
IN: Name the reported EC50 hNPY2R 0.5% hP (CreLuc) value associated with the binder Y[Aib]EGTFTSDYSI[Aib]LEKQAQ[Aib]AFVEWLIK([AEEA-AEEA-γGlu-γGlu-γGlu-C18 diacid])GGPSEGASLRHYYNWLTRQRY-NH2 (also: TFA salt) [Compound 299]
OUT: 11

These measurements were taken from patent US20240247080A1.
